Data origin, for the record: ChEMBL document CHEMBL1136394

Assay: Half life was determined
Type: ADME
Details: rat
Measured metric: half-life (min)
Unit min implied. Number only.

Consider the molecule COC[C@H]1CN(c2ccc(OCC[C@@H](O)C(F)(F)F)cc2)C(=O)O1 and give its measured half-life.
20.4
